test system: 17β-HSD1 (Homo sapiens); experiment: Displacement of [3H]estrone human recombinant 17beta-HSD1 expressed in Escherichia coli BL21 (DE3)-RIL at 0.6 uM by scintillation counting in presence of NADPH
Calls of active or inactive are those of the source. The calls are words filed in the database; no cut-off is given here.
MEASUREMENT LABEL: inhibition

>>> print(df.to_string())
                                smiles_input  observed_measurement
 0           O=c1ccc2cc(-c3ccc(Cl)cc3)ccc2o1              inactive
 1              CCOC(=O)c1cc2cc(Br)ccc2oc1=O              inactive
 2      CC(=O)c1cc2cc(-c3ccc(F)cc3)ccc2oc1=O                   15%
 3   CCOC(=O)c1cc2cc(-c3ccc(OC)cc3)ccc2oc1=O              inactive
 4   CCOC(=O)c1cc2ccc(-c3ccc(Cl)cc3)cc2oc1=O              inactive
 5   CCOC(=O)c1cc2ccc(-c3ccc(OC)cc3)cc2oc1=O              inactive
 6                      O=c1ccc2cc(Br)ccc2o1              inactive
 7       CCOC(=O)c1cc2cc(-c3ccccc3)ccc2oc1=O              inactive
 8    CCOC(=O)c1cc2cc(-c3ccc(F)cc3)ccc2oc1=O                   21%
 9         CC(=O)c1cc2cc(-c3ccccc3)ccc2oc1=O              inactive
10      CC(=O)c1cc2cc(-c3ccc(C)cc3)ccc2oc1=O              inactive
11           COc1ccc(-c2ccc3ccc(=O)oc3c2)cc1              inactive
12    CCOC(=O)c1cc2cc(-c3ccc(C)cc3)ccc2oc1=O                    6%
13      O=c1ccc2ccc(OS(=O)(=O)C(F)(F)F)cc2o1              inactive
14      CC(=O)c1cc2ccc(-c3ccc(C)cc3)cc2oc1=O                   40%
15            Cc1ccc(-c2ccc3oc(=O)ccc3c2)cc1              inactive
16  CC(=O)c1cc2ccc(OS(=O)(=O)C(F)(F)F)cc2oc1=O                   60%
17       CCOC(=O)c1cc2ccc(-c3ccccc3)cc2oc1=O              inactive
18   CCOC(=O)c1cc2cc(-c3ccc(Cl)cc3)ccc2oc1=O                   10%
19     CC(=O)c1cc2cc(-c3ccc(Cl)cc3)ccc2oc1=O              inactive
20            O=c1ccc2cc(-c3ccc(O)cc3)ccc2o1                    4%
21              COc1ccc2cc(C(C)=O)c(=O)oc2c1                   23%
22            O=c1ccc2ccc(-c3ccc(O)cc3)cc2o1              inactive
23           O=c1ccc2ccc(-c3ccc(Cl)cc3)cc2o1              inactive
24            Cc1ccc(-c2ccc3ccc(=O)oc3c2)cc1                   10%
25               O=c1ccc2ccc(-c3ccccc3)cc2o1              inactive
26   COc1ccc(-c2ccc3oc(=O)c(C(C)=O)cc3c2)cc1              inactive
27      CC(=O)c1cc2ccc(-c3ccc(O)cc3)cc2oc1=O                   76%
28    CCOC(=O)c1cc2ccc(-c3ccc(C)cc3)cc2oc1=O                   11%
29               O=c1ccc2cc(-c3ccccc3)ccc2o1              inactive
30           COc1ccc(-c2ccc3oc(=O)ccc3c2)cc1                    7%
31      CC(=O)c1cc2ccc(-c3ccc(F)cc3)cc2oc1=O                    6%
32   COc1ccc(-c2ccc3cc(C(C)=O)c(=O)oc3c2)cc1                   48%
33  CCOC(=O)c1cc2ccc(OS(=O)(=O)C(F)(F)F)cc2oc1=O              inactive
34     CC(=O)c1cc2ccc(-c3ccc(Cl)cc3)cc2oc1=O                   12%
